Test: qHTS assay to test for compound auto fluorescence at 590 nm (red) in HEK293 cell free culture (AID 720683); note: % is set by controls: 0 for no effect and ±100 for the full control effect
Details: cell-free medium autofluorescence, Ex540/Em590 red; series mostly up to 91.3 µM
Calls of active or inactive are those of the source. Calls come from the whole dose curve; as a rule, active = well fitted curve in the direction sought with a large enough effect in the repeat runs; inconclusive = weak or mixed curves; inactive = flat fitted curve, though single readings scatter.
Parameter: fluorescence, % of fluorescent control

COc1ccc2c(c1OC)CN1CCc3cc4c(cc3C1C2)OCO4 (configuration not stated) = 0.155% [at 18.6 µM] (inactive)
COP(=S)(OC)Oc1c(Cl)cc(C)cc1Cl = inactive
C[C@]1(O)CC[C@H]2[C@@H]3CCC4=CC(=O)CC[C@]4(C)[C@@]3(F)[C@@H](O)C[C@@]21C = inactive
CC(C)(C)C(=O)C(Oc1ccc(Cl)cc1)n1cncn1 (configuration not stated) = inactive
COC(=O)C(c1ccccc1)C1CCCCN1 (configuration not stated) = inactive

Measured fluorescence, % of fluorescent control of NC(=O)c1cc([N+](=O)[O-])cc([N+](=O)[O-])c1 : inactive

Measured fluorescence, % of fluorescent control of CCC1(c2ccccc2)C(=O)N=C(O)NC1=O (configuration not stated) : inactive

Measured fluorescence, % of fluorescent control of CCOP(=S)(Oc1cnc(C(C)(C)C)nc1)OC(C)C (configuration not stated) : inactive

Measured fluorescence, % of fluorescent control of C[C@H]1CCC[C@H](O)CCCCCc2cc(O)cc(O)c2C(=O)O1 : inactive

Measured fluorescence, % of fluorescent control of CC1=NNC(=O)N(/N=C/c2cccnc2)C1 : inactive

Measured fluorescence, % of fluorescent control of Nc1c(Br)cc([N+](=O)[O-])cc1[N+](=O)[O-] : inactive

Measured fluorescence, % of fluorescent control of Cc1cccc(C#N)c1 : inactive

Data origin, for the record: PubChem BioAssay (Tox21)
